Reported Test A Sinf values follow for various molecules
Target: human RXFP1 (Homo sapiens)
Sequence (Q9HBX9 1-757): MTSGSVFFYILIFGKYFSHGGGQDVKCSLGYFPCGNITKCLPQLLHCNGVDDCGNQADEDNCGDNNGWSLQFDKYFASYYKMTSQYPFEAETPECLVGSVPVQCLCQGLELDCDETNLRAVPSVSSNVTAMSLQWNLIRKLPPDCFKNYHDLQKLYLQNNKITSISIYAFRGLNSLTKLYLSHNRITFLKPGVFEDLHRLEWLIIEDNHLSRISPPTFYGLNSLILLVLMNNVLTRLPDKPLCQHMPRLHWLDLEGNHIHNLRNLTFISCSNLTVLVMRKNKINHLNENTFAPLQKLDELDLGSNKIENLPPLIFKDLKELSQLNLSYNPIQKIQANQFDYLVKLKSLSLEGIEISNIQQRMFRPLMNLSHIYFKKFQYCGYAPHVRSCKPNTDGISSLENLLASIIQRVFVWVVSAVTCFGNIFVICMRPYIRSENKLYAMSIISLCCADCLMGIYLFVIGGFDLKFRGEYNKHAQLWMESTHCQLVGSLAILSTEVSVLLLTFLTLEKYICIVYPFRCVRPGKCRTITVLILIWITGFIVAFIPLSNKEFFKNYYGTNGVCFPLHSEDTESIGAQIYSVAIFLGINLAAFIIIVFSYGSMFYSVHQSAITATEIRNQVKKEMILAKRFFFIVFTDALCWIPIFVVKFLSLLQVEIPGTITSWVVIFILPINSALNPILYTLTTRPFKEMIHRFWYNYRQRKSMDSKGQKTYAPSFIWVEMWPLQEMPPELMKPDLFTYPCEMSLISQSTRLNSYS
Test: RXFP1 Hu cAMP (Test A)
Assay type: cell-based
Parameters: expressed in transfected cells; host or cells: Jump-In T-REx CHO-K1 cells (ThermoFisher), induced with 10 ng/ml doxycycline for 24 h
Details: RXFP1 Hu cAMP
Output spec: scalar in %, unitless text.

COc1cc(F)c(O[C@H]2C[C@@](C)(C(=O)O)C2)cc1C(=O)N[C@@H]1[C@@H]2CC[C@@H](C2)[C@@H]1C(=O)Nc1cccc(S(=O)(=O)C(F)(F)F)c1    94
COc1cc(F)c(O[C@H]2CC[C@@](C)(C(=O)O)CC2)cc1C(=O)N[C@@H]1COCC[C@@H]1C(=O)Nc1cccc(S(=O)(=O)C(F)(F)F)c1 (racemic) [Example 340]    100

input: Lookup: Test A Sinf / human RXFP1 (Homo sapiens) / COc1cc(F)c(-c2ccccc2CC(=O)O)cc1C(=O)N[C@H]1[C@@H](C(=O)Nc2cccc(S(=O)(=O)C(F)(F)F)c2)[C@@H]2C=C[C@H]1C2 (racemic)
output: 75

* * *

assay: Human Plasma Protein Binding (Test B); assay type: in vitro ADME; settings: fraction unbound (fu)
Reported Test B Human Plasma Protein Binding (% free) values follow for various molecules
Quick note: number first, unit second.

Below, 2 molecules whose answers are already recorded.
COc1cc(F)c(O[C@H]2CC[C@@](C)(C(=O)O)CC2)cc1C(=O)N[C@@H]1[C@H]2CC[C@H](C2)[C@@H]1C(=O)NCC(C)(C)C [Example 35]    8.2 % free
COc1cc(Cl)c(O[C@H]2CC[C@@](C)(C(=O)O)CC2)cc1C(=O)N[C@@H]1[C@H]2CC[C@H](C2)[C@@H]1C(=O)NCC(C)(C)C(F)(F)F [Example 409]    3.4 % free

Now for a further molecule.
input: Query: Test B Human Plasma Protein Binding (% free); subject: COc1cc(F)c(O[C@H]2CC[C@@](C)(C(=O)O)CC2)cc1C(=O)N[C@@H]1[C@H]2CC[C@H](C2)[C@@H]1C(=O)N[C@@H](C)C(C)C [Example 42]
output: 5.4 % free
